# test_details: Toxicity liver stage against HepG2, at 10uM
# Format: cell-based
# Parameters: test concentration 10 uM, cell line HepG2-A16-CD81EGFP
# condition_details: human, HepG2-A16-CD81EGFP cells; read-out: INHIBITION
Each record here notes measured cytotoxicity at 10 µM.
Write the answer as a number in %, unit excluded.

Cc1noc(CNc2ccc(C(=O)N3CCCC(C)C3)cc2C)n1 (stereo unspecified) ... -4.07
Cc1cnc(N2CCC3(CC2)CC(N(C)Cc2ccncc2)C3)nc1 ... 8.73
CC(C)OCCCNC(=O)NC(C)c1ccc(-n2cncn2)cc1 (stereo unspecified) ... -5.32
Cc1ccsc1S(=O)(=O)N1CCc2c(c(C(=O)O)nn2CC2CC2)C1 ... -0.714
COc1ccccc1CC(=O)NCc1ccnc(NC2CC2)c1 ... -4.06

Now let's try a different one.
Report cytotoxicity at 10 µM for CCS(=O)(=O)N1CCC2(CC(=O)N(c3ccc4c(c3)OCO4)C2)C1 (stereo unspecified) please.
9.17
